Measured pKi (UniProt Q6Q253)
Sequence (Q6Q253 whole entry): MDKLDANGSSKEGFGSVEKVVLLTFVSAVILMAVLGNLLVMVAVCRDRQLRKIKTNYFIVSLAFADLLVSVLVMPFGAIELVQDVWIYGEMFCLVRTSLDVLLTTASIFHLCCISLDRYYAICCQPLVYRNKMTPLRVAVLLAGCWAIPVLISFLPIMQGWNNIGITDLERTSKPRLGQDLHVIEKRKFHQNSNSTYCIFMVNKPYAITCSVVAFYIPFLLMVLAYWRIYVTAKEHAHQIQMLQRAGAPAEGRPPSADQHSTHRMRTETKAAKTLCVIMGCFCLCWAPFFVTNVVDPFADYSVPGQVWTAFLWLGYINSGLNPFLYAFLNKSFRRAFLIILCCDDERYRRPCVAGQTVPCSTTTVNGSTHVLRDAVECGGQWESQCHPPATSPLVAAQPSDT
One number for each entry, as −log10 of the molar value.

Consider the reported pKi for these compounds:
CCCCN1CCC(COC(=O)c2c[nH]c3ccccc23)CC1; 8.60
CCCCN1CCC(COC(=O)c2c3n(c4ccccc24)CCCO3)CC1; 10.20

CCCCN1CCC(COC(=O)c2c3n(c4ccccc24)CCO3)CC1 on UniProt Q6Q253 gives pKi = 10.10

All figures here come from ChEMBL document CHEMBL1151042.
